Data provenance: patent US20190218553

system.name: von Willebrand factor (VWF) (Homo sapiens, UniProt P04275 P04275:764-2813)
test.method.notes: filter; Bmax 55%; 2 mM CaCl2, 37 C
measurement.conditions: tags: factor VIII free, Haematologic Technologies Inc; label: 5'-32P
measure: pKd
Give bare numbers, as −log10 of the molar value.

ACGAACUGCCCUCGCACUUUCAUGUGCGACGCACAGACGU (ssRNA, 2'-F C and U; 2'-OH A and G; 3' idT) [T38] ... 8.02

Now let's try a different one.
// recorded pKd for CCCAAAACGAACUGCCCUCGAUCGACGCACAGACGU (ssRNA, 2'-F C and U; 2'-OH A and G; 3' idT) [T78] : 8.18
